Target: T1, murine CD300LB stably expressed on Jurkat cells (mouse, UniProt Q3U497 18-209)
T1 construct: also called muCD300LB; mouse CD300LB
T1 sequence: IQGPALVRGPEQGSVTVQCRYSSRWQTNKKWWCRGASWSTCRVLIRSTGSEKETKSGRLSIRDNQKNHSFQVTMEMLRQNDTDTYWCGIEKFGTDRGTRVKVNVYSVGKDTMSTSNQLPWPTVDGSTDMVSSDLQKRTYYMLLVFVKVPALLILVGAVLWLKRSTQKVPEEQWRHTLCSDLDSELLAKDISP
Assay: flow cytometry, stable Jurkat cells, supernatant or 10 ug/mL, isotype subtracted
measurementName: gMFI (gMFI)
Give bare numbers, in gMFI.

Task item: Item anti-CD300LB antibody CD-18 (antibody, V domains shown) VH: DVQLQESGPDLVKPSQSLSLTCTVTGYSITSGYSWHWIRQFPDNKLEWMGYILSRGDTNFNPSLKSRISITRSTSNNQFFLHFNSVTTEDTATYYCARDFFDYWGQGTTLTVSS VL: DVLMTQTPLSLPVSLGDQASISCRSSQSIVHSNGNTYLEWYLQKPGQSPKLLIYKVSDRFSGVPDRFSGSGSGTDFTLKISRVEAEDLGVYFCFQGSHVPYTFGGGTKLEIK has what recorded gMFI?
Reply: 643
